This collection of values is drawn from paper PMC3804602.

Molecular target: T1, T2 mechanosensitive channel from Thermoplasma volcanium, tag free (Thermoplasma volcanium)
T1 construct: TVN0821, gene amplified from genomic DNA (DSM 4299 [GSS1*]); 297 amino acids per monomer; Cloned into pNIC28-Bsa4 (TEV site) and pET46 (Enterokinase site); In detergent (0.03 % DDM); also called T2 channel; tag free T2-channel; source: E. coli C43(DE3), purified (DDM solubilised, IMAC, tag cleavage, second IMAC, gel filtration); not shown: His-tag, N-terminal, cleaved
T1 chain: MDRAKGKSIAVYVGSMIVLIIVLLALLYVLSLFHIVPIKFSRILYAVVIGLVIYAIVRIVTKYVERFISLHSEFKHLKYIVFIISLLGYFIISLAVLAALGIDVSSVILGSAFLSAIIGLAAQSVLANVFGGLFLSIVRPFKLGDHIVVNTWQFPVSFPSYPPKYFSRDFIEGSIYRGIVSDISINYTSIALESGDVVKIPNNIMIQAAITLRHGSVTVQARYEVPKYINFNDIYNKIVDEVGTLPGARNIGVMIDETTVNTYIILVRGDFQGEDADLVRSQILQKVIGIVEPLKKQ
Experiment: SPR; BIAcore 3000, 25 °C, 20 mM sodium phosphate pH 7.4, 150 mM NaCl, 0.03 % DDM; T2 channel amine-coupled on CM5 (1500 - 2000 RU); nanobodies 0.35 - 86.1 nM injected in triplicates; global fit to a simple bimolecular model, KD = kd/ka
Settings: both partners purified
observation-type: pKd
Please note pKd is a logarithmic value: minus log10 of concentration in mol/L. Answer with that number alone.

nanobody 6 (VHH, pHEN6 vector; also called Nb 6; CA-number 3387; source: E. coli WK6 periplasm, purified (IMAC, gel filtration); not shown: His-tag, C-terminal, kept) VHH: QVQLQESGGGLVQPGGSLRLSCAASGSIFSINAMGWYRQAPGKQRELVAVLTRRGSTNYADSMKGRFTISRDNTKNTVYLQMNSLKPEDTAVYYCNADLEGRPLYWGQGTQVTVSS
8.36
nanobody 9 (VHH, pHEN6 vector; also called Nb 9; CA-number 3390; source: E. coli WK6 periplasm, purified (IMAC, gel filtration); not shown: His-tag, C-terminal, kept) VHH: QVQLQESGGGLVQPGGSLRLSCAASGSIFGINAMGWYRRPPGKQRELVAVITSGGSTNYADSVKGRFTISRGNAKNTVYLQMNSLKAEDTAVYYCNAYTDFVRPYNHWGQGTQVTVSS
7.32
nanobody 8 (VHH, pHEN6 vector; also called Nb 8; CA-number 3389; source: E. coli WK6 periplasm, purified (IMAC, gel filtration); not shown: His-tag, C-terminal, kept) VHH: QVQLQESGGGLVQPGGSLRLSCAASGSPFSFGAMGWYRQAPGKQRELAAIITNAGSTMYADSVKGRFTVSRVNAKNTVSLQMNNLKPEDTAVYYCYAQTAPVADVTWGQGTQVTVSS
9.24

Return reported pKd; argument: nanobody 23 (VHH, pHEN6 vector; also called Nb 23; CA-number 3407; source: E. coli WK6 periplasm, purified (IMAC, gel filtration); not shown: His-tag, C-terminal, kept) VHH: QVQLQESGGGLVQPGGFLTLSCAASGSPFSFGAMGWYRQAPGKQRELVAIITRRGSTNYADSVKGRFTVSSDNAKNTVYLQMNSLKPEDTAVYYCYHQTAPVADVTWGQGTQVTVSS
9.11
